target: Sodium-dependent dopamine transporter (Homo sapiens, UniProt Q01959); assay: Inhibition of [3H]dopamine reuptake at human DAT expressed in HEK293 cells by SPA
Sequence (Q01959 whole entry): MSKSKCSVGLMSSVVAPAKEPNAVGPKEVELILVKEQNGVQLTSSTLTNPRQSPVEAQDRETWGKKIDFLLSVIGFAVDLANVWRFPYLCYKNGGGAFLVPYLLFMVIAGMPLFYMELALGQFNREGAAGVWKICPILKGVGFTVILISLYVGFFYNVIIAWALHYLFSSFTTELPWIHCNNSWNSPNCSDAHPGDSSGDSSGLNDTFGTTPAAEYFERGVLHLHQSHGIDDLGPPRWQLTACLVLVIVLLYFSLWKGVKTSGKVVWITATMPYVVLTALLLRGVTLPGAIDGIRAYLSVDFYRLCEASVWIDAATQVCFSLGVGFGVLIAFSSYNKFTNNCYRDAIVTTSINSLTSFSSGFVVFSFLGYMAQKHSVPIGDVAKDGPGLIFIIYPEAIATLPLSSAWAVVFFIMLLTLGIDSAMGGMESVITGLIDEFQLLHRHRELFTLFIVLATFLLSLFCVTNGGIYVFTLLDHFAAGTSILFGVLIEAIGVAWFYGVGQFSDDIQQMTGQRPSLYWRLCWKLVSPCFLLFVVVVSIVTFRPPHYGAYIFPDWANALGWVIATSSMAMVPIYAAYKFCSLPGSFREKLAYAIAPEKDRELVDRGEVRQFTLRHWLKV
attribute_measured: Ki (µM)
Express your answer in µM, writing the number without its unit.

Answered examples (3):
[
  {
    "test_smiles": "CSc1ccccc1CN([C@H]1CCNC1)S(C)(=O)=O",
    "Ki [µM]": 2.95
  },
  {
    "test_smiles": "CS(=O)(=O)N(Cc1ccccc1-c1ccccc1)[C@H]1CCNC1",
    "Ki [µM]": 2.67
  },
  {
    "test_smiles": "CCOC(=O)N(Cc1ccccc1C(C)C)[C@H]1CCNC1",
    "Ki [µM]": 3.34
  }
]

Query: Look up Sodium-dependent dopamine transporter (Homo sapiens, UniProt Q01959) data: Ki of `c1ccc(-c2ccccc2CN[C@H]2CCNC2)cc1` , then report it.
Response: 2.47

Query: Look up Sodium-dependent dopamine transporter (Homo sapiens, UniProt Q01959) data: Ki of `CC(C)C(=O)N(Cc1ccccc1C(C)C)[C@H]1CCNC1` , then report it.
Response: 3.41

Query: Look up Sodium-dependent dopamine transporter (Homo sapiens, UniProt Q01959) data: Ki of `CC(C)C(=O)N(Cc1ccccc1Oc1ccccc1)[C@H]1CCNC1` , then report it.
Response: 3.5

---

molecular target: UniProt P28223; assay: Activity at 5HT2A receptor
Sequence (P28223 whole entry): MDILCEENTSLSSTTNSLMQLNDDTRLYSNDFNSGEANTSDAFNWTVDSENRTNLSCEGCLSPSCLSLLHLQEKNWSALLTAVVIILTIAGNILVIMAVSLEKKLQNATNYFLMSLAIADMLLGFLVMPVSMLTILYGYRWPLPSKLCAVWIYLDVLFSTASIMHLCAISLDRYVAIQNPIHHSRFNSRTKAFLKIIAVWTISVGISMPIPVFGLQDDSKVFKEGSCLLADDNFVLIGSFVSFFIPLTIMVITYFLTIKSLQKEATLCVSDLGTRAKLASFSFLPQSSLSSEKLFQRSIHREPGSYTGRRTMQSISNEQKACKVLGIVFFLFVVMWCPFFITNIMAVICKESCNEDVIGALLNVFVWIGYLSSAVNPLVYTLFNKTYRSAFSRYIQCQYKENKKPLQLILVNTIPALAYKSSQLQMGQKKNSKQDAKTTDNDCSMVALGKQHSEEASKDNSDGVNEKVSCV
attribute_measured: EC50

Query: Supply measured EC50 of `CCOC(=O)N(Cc1ccccc1-c1ccccc1)[C@H]1CCNC1` in your reply.
Response: > 10 µM

---

test: Apparent permeability from basolateral to apical side of the human Caco-2 membrane; format: ADME, cell-based
attribute_measured: Papp B→A (×10⁻⁶ cm/s)
Express your answer in ×10⁻⁶ cm/s, writing the number without its unit.

Query: Supply measured Papp B→A of `CCOC(=O)N(Cc1ccccc1-c1ccccc1)[C@H]1CCNC1` in your reply.
Response: 28

---

target: Sodium-dependent serotonin transporter (Homo sapiens, UniProt P31645); test: Inhibition of [3H]citalopram uptake at human 5HTT expressed in HEK293 cells by SPA; type: cell-based
Sequence (P31645 whole entry): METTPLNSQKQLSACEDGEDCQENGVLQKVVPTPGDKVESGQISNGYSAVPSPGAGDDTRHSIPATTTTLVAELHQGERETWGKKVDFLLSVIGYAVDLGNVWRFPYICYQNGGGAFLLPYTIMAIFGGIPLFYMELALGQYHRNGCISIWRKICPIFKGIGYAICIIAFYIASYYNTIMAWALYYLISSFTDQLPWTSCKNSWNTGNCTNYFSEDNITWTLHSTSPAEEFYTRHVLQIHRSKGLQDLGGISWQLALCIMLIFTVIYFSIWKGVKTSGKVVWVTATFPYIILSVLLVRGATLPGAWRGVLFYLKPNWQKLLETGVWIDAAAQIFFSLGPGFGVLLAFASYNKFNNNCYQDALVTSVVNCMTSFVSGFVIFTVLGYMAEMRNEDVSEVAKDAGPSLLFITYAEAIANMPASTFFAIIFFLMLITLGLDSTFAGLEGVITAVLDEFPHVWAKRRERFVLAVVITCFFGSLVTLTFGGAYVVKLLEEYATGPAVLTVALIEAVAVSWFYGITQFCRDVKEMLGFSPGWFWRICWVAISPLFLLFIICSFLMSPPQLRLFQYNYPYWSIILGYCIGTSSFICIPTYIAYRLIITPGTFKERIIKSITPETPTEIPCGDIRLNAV
attribute_measured: Ki (nM)
Express your answer in nM, writing the number without its unit.

[
  {
    "test_smiles": "CCOC(=O)N(Cc1ccccc1SC)[C@H]1CCNC1",
    "system_name": "Sodium-dependent serotonin transporter (Homo sapiens, UniProt P31645)",
    "Ki [nM]": 353
  },
  {
    "test_smiles": "CN(C)C(=O)N(Cc1ccccc1-c1ccccc1)[C@H]1CCNC1",
    "system_name": "Sodium-dependent serotonin transporter (Homo sapiens, UniProt P31645)",
    "Ki [nM]": 5010
  }
]

Now look at this entry.
Query: Supply measured Ki of `CC(C)C(=O)N(Cc1ccccc1C1CC1)[C@H]1CCNC1` in your reply.
Response: 124

---

target: Sodium-dependent noradrenaline transporter (Homo sapiens, UniProt P23975); experiment: Inhibition of [3H]nisoxetine reuptake at human NET expressed in HEK293 cells by SPA
Sequence (P23975 whole entry): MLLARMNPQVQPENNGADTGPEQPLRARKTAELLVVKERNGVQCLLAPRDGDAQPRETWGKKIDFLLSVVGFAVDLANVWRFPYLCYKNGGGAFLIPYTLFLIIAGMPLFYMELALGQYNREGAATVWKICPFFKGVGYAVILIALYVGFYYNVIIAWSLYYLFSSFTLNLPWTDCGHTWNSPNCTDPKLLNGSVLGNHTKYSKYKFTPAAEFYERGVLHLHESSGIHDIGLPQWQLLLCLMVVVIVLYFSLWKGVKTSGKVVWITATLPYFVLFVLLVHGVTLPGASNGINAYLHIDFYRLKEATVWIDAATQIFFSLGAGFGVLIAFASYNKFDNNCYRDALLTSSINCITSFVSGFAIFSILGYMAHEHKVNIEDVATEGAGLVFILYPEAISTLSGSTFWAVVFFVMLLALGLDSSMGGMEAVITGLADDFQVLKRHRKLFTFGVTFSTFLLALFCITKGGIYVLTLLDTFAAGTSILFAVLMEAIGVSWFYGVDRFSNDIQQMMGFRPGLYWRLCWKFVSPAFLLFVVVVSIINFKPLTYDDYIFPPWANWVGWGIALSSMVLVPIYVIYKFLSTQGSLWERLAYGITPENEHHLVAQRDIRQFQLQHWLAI
attribute_measured: pKi
A value of pKi is the negative decimal logarithm of a concentration given in moles per litre.

Answered examples (5):
[
  {
    "test_smiles": "CCOC(=O)N(Cc1ccccc1C(F)(F)F)[C@H]1CCNC1",
    "pKi": 7.34
  },
  {
    "test_smiles": "CSc1ccccc1CN(C(=O)C(C)C)[C@H]1CCNC1",
    "pKi": 7.19
  },
  {
    "test_smiles": "CCOC(=O)N(Cc1ccccc1C(C)C)[C@H]1CCNC1",
    "pKi": 7.31
  },
  {
    "test_smiles": "CC(C)C(=O)N(Cc1ccccc1Oc1ccccc1)[C@H]1CCNC1",
    "pKi": 7.47
  },
  {
    "test_smiles": "CN(C)C(=O)N(Cc1ccccc1-c1ccccc1)[C@H]1CCNC1",
    "pKi": 7.28
  }
]

Query: Supply measured pKi of `CC(C)C(=O)N(Cc1ccccc1-c1ccccc1)[C@H]1CCNC1` in your reply.
Response: 8.22

Query: Supply measured pKi of `CCOC(=O)N(Cc1ccccc1SC)[C@H]1CCNC1` in your reply.
Response: 7.05

Query: Supply measured pKi of `CS(=O)(=O)N(Cc1ccccc1C(F)(F)F)[C@H]1CCNC1` in your reply.
Response: 7.07

Query: Supply measured pKi of `CC(C)CC(=O)N(Cc1ccccc1-c1ccccc1)[C@H]1CCNC1` in your reply.
Response: 7.52

Query: Supply measured pKi of `CS(=O)(=O)N(Cc1ccccc1Oc1ccccc1)[C@H]1CCNC1` in your reply.
Response: 7.02

Query: Supply measured pKi of `CCCS(=O)(=O)N(Cc1ccccc1-c1ccccc1)[C@H]1CCNC1` in your reply.
Response: 8.15

Query: Supply measured pKi of `O=S(=O)(N(Cc1ccccc1-c1ccccc1)[C@H]1CCNC1)C(F)(F)F` in your reply.
Response: 7.52

Query: Supply measured pKi of `O=C(N1CCCC1)N(Cc1ccccc1-c1ccccc1)[C@H]1CCNC1` in your reply.
Response: 7.57

Query: Supply measured pKi of `CN(C)S(=O)(=O)N(Cc1ccccc1-c1ccccc1)[C@H]1CCNC1` in your reply.
Response: 8.10

Query: Supply measured pKi of `CS(=O)(=O)N(Cc1ccccc1-c1ccccc1)[C@H]1CCNC1` in your reply.
Response: 8.30

Query: Supply measured pKi of `CCS(=O)(=O)N(Cc1ccccc1-c1ccccc1)[C@H]1CCNC1` in your reply.
Response: 8.30

Query: Supply measured pKi of `c1ccc(-c2ccccc2CN[C@H]2CCNC2)cc1` in your reply.
Response: 6.57

Query: Supply measured pKi of `CCOC(=O)N(Cc1ccccc1-c1ccccc1)[C@H]1CCNC1` in your reply.
Response: 8.10

Query: Supply measured pKi of `CC(C)S(=O)(=O)N(Cc1ccccc1-c1ccccc1)[C@H]1CCNC1` in your reply.
Response: 8.00

---

Reported pKi values follow for various molecules
biological target: UniProtKB P23975; test: Inhibition of [3H]nisoxetine reuptake at human NET expressed in HEK293 cells by SPA
A value of pKi is the negative decimal logarithm of a concentration given in moles per litre.

[
  {
    "test_smiles": "CC(C)OC(=O)N(Cc1ccccc1-c1ccccc1)[C@H]1CCNC1",
    "system_name": "UniProtKB P23975",
    "pKi": 7.85
  }
]

Query: Look up UniProtKB P23975 data: pKi of `CC(C)C(=O)N(Cc1ccccc1C(C)C)[C@H]1CCNC1` , then report it.
Response: 7.15

Query: Look up UniProtKB P23975 data: pKi of `O=CN(Cc1ccccc1-c1ccccc1)[C@H]1CCNC1` , then report it.
Response: 6.93

Query: Look up UniProtKB P23975 data: pKi of `CCOC(=O)N(Cc1ccccc1Oc1ccccc1)[C@H]1CCNC1` , then report it.
Response: 7.64

---

Reported microsomal CLint values follow for various compounds
assay: Metabolic stability in human liver microsomes assessed as intrinsic clearance; assay type: ADME, Microsome

Answered examples (4):
[
  {
    "test_smiles": "CCOC(=O)N(Cc1ccccc1Oc1ccccc1)[C@H]1CCNC1",
    "measured": "21 µL/min/mg"
  },
  {
    "test_smiles": "CSc1ccccc1CN([C@H]1CCNC1)S(C)(=O)=O",
    "measured": "< 7 µL/min/mg"
  },
  {
    "test_smiles": "CCCC(=O)N(Cc1ccccc1-c1ccccc1)[C@H]1CCNC1",
    "measured": "< 7 µL/min/mg"
  },
  {
    "test_smiles": "CC(C)C(=O)N(Cc1ccccc1Oc1ccccc1)[C@H]1CCNC1",
    "measured": "10 µL/min/mg"
  }
]

Query: Supply measured microsomal CLint of `CC(C)C(=O)N(Cc1ccccc1-c1ccccc1)[C@H]1CCNC1` in your reply.
Response: < 7 µL/min/mg

Query: Supply measured microsomal CLint of `CCCS(=O)(=O)N(Cc1ccccc1-c1ccccc1)[C@H]1CCNC1` in your reply.
Response: 12 µL/min/mg

Recorded values, source ChEMBL document CHEMBL1155858.
